System: SW-620
protocolDescription: NCI tumour cell line growth inhibition, 48 h
Active and inactive are the calls of the source. Rule as the data show it: active = GI50 up to about 1.1 µM and inactive = higher.
Outcomes: active, inactive

In [3]: df
Out[3]:
                                    compound  classname
 0  N#CC12C(=O)N3C(=NC(c4ccccc4)NC3c3ccccc3)C1(C#N)C(c1ccccc1)NC1=C2CCCC1 (configuration not stated)   inactive
 1      CCc1cc2c(oc3cc4ccccc4cc32)c(=O)[nH]1   inactive
 2  CN(CCNC(=O)c1n[nH]c2c1ccc1ccccc12)CCNC(=O)c1n[nH]c2c1ccc1ccccc12   inactive
 3    COc1ccc(CC2=NCCc3cc(OC)c(OC)cc32)cc1Br   inactive
 4  O=C(O)c1ccc2c(c1)CC1(C2)Cc2ccccc2C1=O (configuration not stated)   inactive
 5             CCCCCCCCCCCCN(O)C(=O)c1ccccc1   inactive
 6  CC(C)OP(=O)(OC(C)C)/C(=N/Nc1ccc([N+](=O)[O-])cc1)Nc1ccccc1   inactive
 7  O=C1C=C(c2c(-c3ccccc3)[nH]c3ccccc23)C(=O)N1c1ccccc1   inactive
 8  CC(NC(=O)c1ccc(OP(=O)(OCc2ccc([N+](=O)[O-])o2)N(C)CCCCCl)cc1)c1ccc(OCC2CCCCC2)c(C(N)=O)c1 (configuration not stated)   inactive
 9  CC(=O)N/N=C1\NC(=O)C[C@H]2[C@@H]3CC=C4C[C@@H](OC(C)=O)CC[C@]4(C)[C@H]3CC[C@]12C   inactive
10  COC(CC1(CCNc2ccccc2)C(=O)N(COCC[Si](C)(C)C)c2ccccc21)OC (configuration not stated)   inactive
11  CCCCCCC(=O)OC[n+]1ccc2c(C)c3[nH]c4ccc(OC)cc4c3c(C)c2c1     active
